# Assay System: HLA-B*15:42
# Assay Protocol: IEDB peptide-MHC binding, purified MHC/competitive/fluorescence; filed as Kd, often an IC50 or EC50 that approximates it; bounds were set here for any values at or beyond the usual limits of such assays
# Test Conditions: source organism: Shigella flexneri 5 str. 8401
pKd: −log10 of the molar value.
Reported Metric: pKd

Request: Could you tell me which pKd is on file for "TTIPTNLFR" ?
Response: ≤ 5.30

* * *

# Assay System: HLA-A*02:06
# Assay Protocol: IEDB peptide-MHC binding, purified MHC/competitive/radioactivity; filed as Kd, often an IC50 or EC50 that approximates it; bounds were set here for any values at or beyond the usual limits of such assays
# Test Conditions: source organism: Vaccinia virus Copenhagen
Reported Metric: Kd (nM)
Answer with a number only, understood to be in nM.

Request: Could you tell me which Kd is on file for "NLFDIPLLTV" ?
Response: 1.55

* * *

# Assay System: HLA-A*02:12
# Assay Protocol: IEDB peptide-MHC binding, purified MHC/direct/fluorescence; filed as Kd, often an IC50 or EC50 that approximates it; bounds were set here for any values at or beyond the usual limits of such assays
# Test Conditions: source organism: Cryptosporidium parvum Iowa II
Reported Metric: Kd

Request: Could you tell me which Kd is on file for "TVFRNQNRV" ?
Response: ≥ 20 µM

* * *

# Assay System: HLA-A*02:12
# Assay Protocol: IEDB peptide-MHC binding, purified MHC/competitive/fluorescence; filed as Kd, often an IC50 or EC50 that approximates it; bounds were set here for any values at or beyond the usual limits of such assays
# Test Conditions: source organism: Vibrio cholerae 2740-80
Reported Metric: Kd

Request: Could you tell me which Kd is on file for "YEPEMQAQV" ?
Response: ≥ 20 µM

* * *

# Assay System: HLA-B*40:02
# Assay Protocol: IEDB peptide-MHC binding, purified MHC/competitive/fluorescence; bounds were set here for any values at or beyond the usual limits of such assays
# Test Conditions: source organism: Homo sapiens
pIC50: −log10 of the molar value.
Reported Metric: pIC50

Request: Could you tell me which pIC50 is on file for "FYYNAFHWAI" ?
Response: ≤ 4.70

* * *

# Assay System: HLA-A*02:03
# Assay Protocol: IEDB peptide-MHC binding, purified MHC/competitive/radioactivity; filed as Kd, often an IC50 or EC50 that approximates it; bounds were set here for any values at or beyond the usual limits of such assays
# Test Conditions: source organism: Vaccinia virus WR
Reported Metric: Kd (nM)
Answer with a number only, understood to be in nM.

Request: Could you tell me which Kd is on file for "MMVILPDKI" ?
Response: 16.3

Request: Could you tell me which Kd is on file for "FMEEEIKAEM" ?
Response: 3070

Request: Could you tell me which Kd is on file for "ILYYGANGST" ?
Response: 39.3

Request: Could you tell me which Kd is on file for "LVITYCLVT" ?
Response: 3250

Request: Could you tell me which Kd is on file for "GIYNCCESNI" ?
Response: 140

Request: Could you tell me which Kd is on file for "NIVTDLENRL" ?
Response: 17600

Request: Could you tell me which Kd is on file for "RVFKKIMSI" ?
Response: 0.18

Request: Could you tell me which Kd is on file for "IMRNFLRSI" ?
Response: 0.398

Request: Could you tell me which Kd is on file for "YIYGIPLSL" ?
Response: 13100

Request: Could you tell me which Kd is on file for "KLKVDSDSGL" ?
Response: 55.8

Request: Could you tell me which Kd is on file for "TAIRAGYSI" ?
Response: 9200

* * *

# Assay System: HLA-B*15:01
# Assay Protocol: IEDB peptide-MHC binding, purified MHC/competitive/radioactivity; filed as Kd, often an IC50 or EC50 that approximates it; bounds were set here for any values at or beyond the usual limits of such assays
# Test Conditions: source organism: Dengue virus 1 Nauru/West Pac/1974
Reported Metric: pKd
Keep in mind that pKd stands for -log10 of concentration in molar terms.

Request: Could you tell me which pKd is on file for "IMMLKLLTDF" ?
Response: 7.73

* * *

# Assay System: HLA-B*58:01
# Assay Protocol: IEDB peptide-MHC binding, purified MHC/direct/fluorescence; filed as Kd, often an IC50 or EC50 that approximates it; bounds were set here for any values at or beyond the usual limits of such assays
# Test Conditions: source organism: Mammarenavirus lassaense
pKd: −log10 of the molar value.
Reported Metric: pKd

Request: Could you tell me which pKd is on file for "DIKLIDIAL" ?
Response: ≤ 4.70

* * *

# Assay System: HLA-A*33:01
# Assay Protocol: IEDB peptide-MHC binding, purified MHC/competitive/radioactivity; filed as Kd, often an IC50 or EC50 that approximates it; bounds were set here for any values at or beyond the usual limits of such assays
# Test Conditions: source organism: Lassa virus Josiah
Provide the recorded Kd for the entries that follow.
Answer with a number only, understood to be in µM.

Request: Could you tell me which Kd is on file for "QFKQDAKYSH" ?
Response: 10.6

Request: Could you tell me which Kd is on file for "MLQKEYMER" ?
Response: 0.193

* * *

# Assay System: HLA-B*07:02
# Assay Protocol: IEDB peptide-MHC binding, purified MHC/direct/fluorescence; filed as Kd, often an IC50 or EC50 that approximates it; bounds were set here for any values at or beyond the usual limits of such assays
# Test Conditions: source organism: Vibrio vulnificus
pKd: −log10 of the molar value.
Reported Metric: pKd

Request: Request - read-out pKd | tested on HLA-B*07:02 | sequence "PHPVVVRTL"
Response: ≤ 4.70

* * *

# Assay System: HLA-A*69:01
# Assay Protocol: IEDB peptide-MHC binding, purified MHC/direct/fluorescence; filed as Kd, often an IC50 or EC50 that approximates it; bounds were set here for any values at or beyond the usual limits of such assays
# Test Conditions: source organism: Vibrio vulnificus
pKd: −log10 of the molar value.
Reported Metric: pKd

Request: Could you tell me which pKd is on file for "PHPVVVRTL" ?
Response: ≤ 4.70

* * *

# Assay System: HLA-A*31:01
# Assay Protocol: IEDB peptide-MHC binding, purified MHC/competitive/radioactivity; filed as Kd, often an IC50 or EC50 that approximates it; bounds were set here for any values at or beyond the usual limits of such assays
# Test Conditions: source organism: Dengue virus 2 Peru/IQT2913/1996
Reported Metric: pKd
Keep in mind that pKd stands for -log10 of concentration in molar terms.

Request: Could you tell me which pKd is on file for "RMLINRFTMR" ?
Response: 7.84

* * *

# Assay System: HLA-B*45:06
# Assay Protocol: IEDB peptide-MHC binding, purified MHC/competitive/fluorescence; filed as Kd, often an IC50 or EC50 that approximates it; bounds were set here for any values at or beyond the usual limits of such assays
# Test Conditions: source organism: Campylobacter jejuni
pKd: −log10 of the molar value.
Reported Metric: pKd

Request: Could you tell me which pKd is on file for "YTKKYLLSF" ?
Response: ≤ 5.30

* * *

# Assay System: HLA-B*18:01
# Assay Protocol: IEDB peptide-MHC binding, purified MHC/competitive/radioactivity; filed as Kd, often an IC50 or EC50 that approximates it; bounds were set here for any values at or beyond the usual limits of such assays
# Test Conditions: source organism: SARS coronavirus Tor2
Provide the recorded pKd for the entries that follow.
Keep in mind that pKd stands for -log10 of concentration in molar terms.

Request: Could you tell me which pKd is on file for "TEVMPVSMA" ?
Response: 4.95

Request: Could you tell me which pKd is on file for "MEKLKALVA" ?
Response: 5.26

Request: Could you tell me which pKd is on file for "GEILLLEWLA" ?
Response: 5.33

* * *

# Assay System: HLA-A*11:01
# Assay Protocol: IEDB peptide-MHC binding, purified MHC/direct/fluorescence; filed as Kd, often an IC50 or EC50 that approximates it; bounds were set here for any values at or beyond the usual limits of such assays
# Test Conditions: source organism: Yersinia pestis
Reported Metric: pKd
Keep in mind that pKd stands for -log10 of concentration in molar terms.

Request: Could you tell me which pKd is on file for "RVFNGDDVK" ?
Response: 6.60

* * *

Provide the recorded Kd for the entries that follow.
# Assay System: HLA-B*08:01
# Assay Protocol: IEDB peptide-MHC binding, purified MHC/competitive/radioactivity; filed as Kd, often an IC50 or EC50 that approximates it; bounds were set here for any values at or beyond the usual limits of such assays
# Test Conditions: source organism: Vaccinia virus WR
Answer with a number only, understood to be in nM.

Request: Could you tell me which Kd is on file for "ELRDYFEQI" ?
Response: 12.5

Request: Could you tell me which Kd is on file for "NFMQRIISL" ?
Response: 1490

Request: Could you tell me which Kd is on file for "FFKFSFMYI" ?
Response: 840

Request: Could you tell me which Kd is on file for "LNLSKFMMV" ?
Response: 102

Request: Could you tell me which Kd is on file for "HRRLRNKRL" ?
Response: 28.4

Request: Could you tell me which Kd is on file for "DYRFRFRSV" ?
Response: 683

Request: Could you tell me which Kd is on file for "SILSSFFSL" ?
Response: 229

Request: Could you tell me which Kd is on file for "ALMRRIAVV" ?
Response: 1350

Request: Could you tell me which Kd is on file for "SQRFIFNII" ?
Response: 653

Request: Could you tell me which Kd is on file for "RSMYRIPPF" ?
Response: 157

Request: Could you tell me which Kd is on file for "VLRTKITSL" ?
Response: 0.92
